- Tested on: Sindbis virus TE/5'2J-GFP;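 further: Interferon-defective BHK-21 derivatives, ZAP line overexpressing the rat ZAP N-terminal zinc finger domain fused to Zeocin resistance, GFP scored within live singlet TagRFP+ cells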
- assayName: percent infected (GFP+ in RFP+ ISG-expressing cells); higher = more infection (less antiviral activity)
- assayContext: experiment: confirmatory screen 1; BHK/HA-Zeo (control)

itemSequence	assaySystem	percent infected (%)
MHLCGGNGLLTQTDPKEQQRQLKKQKNRAAAQRSRQKHTDKADALHQQHESLEKDNLALRKEIQSLQAELAWWSRTLHVHERLCPMDCASCSAPGLLGCWDQAEGLLGPGPQGQHGCREQLELFQTPGSCYPAQPLSPGPQPHDSPSLLQCPLPSLSLGPAVVAEPPVQLSPSPLLFASHTGSSLQGSSSKLSALQPSLTAQTAPPQPLELEHPTRGKLGSSPDNPSSALGLARLQSREHKPALSAATWQGLVVDPSPHPLLAFPLLSSAQVHF [BATF2]	Sindbis virus TE/5'2J-GFP	90.1
MIAAQAKLVYQLNKYYTERCQARKAAIAKTIREVCKVVSDVLKEVEVQEPRFISSLSEIDARYEGLEVISPTEFEVVLYLNQMGVFNFVDDGSLPGCAVLKLSDGRKRSMSLWVEFITASGYLSARKIRSRFQTLVAQAVDKCSYRDVVKMIADTSEVKLRIRERYVVQITPAFKCTGIWPRSAAQWPMPHIPWPGPNRVAEVKAEGFNLLSKECYSLTGKQSSAESDAWVLQFGEAENRLLMGGCRNKCLSVLKTLRDRHLELPGQPLNNYHMKTLLLYECEKHPRETDWDESCLGDRLNGILLQLISCLQCRRCPHYFLPNLDLFQGKPHSALESAAKQTWRLAREILTNPKSLDKL [MAB21L2]	Sindbis virus TE/5'2J-GFP	77.4
MDFKIEHTWDGFPVKHEPVFIRLNPGDRGVMMDISAPFFRDPPAPLGEPGKPFNELWDYEVVEAFFLNDITEQYLEVELCPHGQHLVLLLSGRRNVWKQELPLSFRMSRGETKWEGKAYLPWSYFPPNVTKFNSFAIHGSKDKRSYEALYPVPQHELQQGQKPDFHCLEYFKSFNFNTLLGEEWKQPESDLWLIEKCDI [C4orf33]	Sindbis virus TE/5'2J-GFP	96.1
MPGKKARKNAQPSPARAPAELEVECATQLRRFGDKLNFRQKLLNLISKLFCSGT [PMAIP1]	Sindbis virus TE/5'2J-GFP	94.9
MTLNNVTMRQGTVGMQPQQQRWSIPADGRHLMVQKEPHQYSHRNRHSATPEDHCRRSWSSDSTDSVISSESGNTYYRVVLIGEQGVGKSTLANIFAGVHDSMDSDCEVLGEDTYERTLMVDGESATIILLDMWENKGENEWLHDHCMQVGDAYLIVYSITDRASFEKASELRIQLRRARQTEDIPIILVGNKSDLVRCREVSVSEGRACAVVFDCKFIETSAAVQHNVKELFEGIVRQVRLRRDSKEKNERRLAYQKRKESMPRKARRFWGKIVAKNNKNMAFKLKSKSCHDLSVL [GEM]	Sindbis virus TE/5'2J-GFP	91.5
MEKLLCFLVLTSLSHAFGQTDMSRKAFVFPKESDTSYVSLKAPLTKPLKAFTVCLHFYTELSSTRGYSIFSYATKRQDNEILIFWSKDIGYSFTVGGSEILFEVPEVTVAPVHICTSWESASGIVEFWVDGKPRVRKSLKKGYTVGAEASIILGQEQDSFGGNFEGSQSLVGDIGNVNMWDFVLSPDEINTIYLGGPFSPNVLNWRALKYEVQGEVFTKPQLWP [CRP]	Sindbis virus TE/5'2J-GFP	94.7
MKVSAAALAVILIATALCAPASASPYSSDTTPCCFAYIARPLPRAHIKEYFYTSGKCSNPAVVFVTRKNRQVCANPEKKWVREYINSLEMS [CCL5]	Sindbis virus TE/5'2J-GFP	95.9
MGILYSEPICQAAYQNDFGQVWRWVKEDSSYANVQDGFNGDTPLICACRRGHVRIVSFLLRRNANVNLKNQKERTCLHYAVKKKFTFIDYLLIILLMPVLLIGYFLMVSKTKQNEALVRMLLDAGVEVNATDCYGCTALHYACEMKNQSLIPLLLEARADPTIKNKHGESSLDIARRLKFSQIELMLRKAL [ANKRD22]	Sindbis virus TE/5'2J-GFP	96.9
MSIMDHSPTTGVVTVIVILIAIAALGALILGCWCYLRLQRISQSEDEESIVGDGETKEPFLLVQYSAKGPCVERKAKLMTPNGPEVHG [SNN]	Sindbis virus TE/5'2J-GFP	95.8
MNMTQARVLVAAVVGLVAVLLYASIHKIEEGHLAVYYRGGALLTSPSGPGYHIMLPFITTFRSVQTTLQTDEVKNVPCGTSGGVMIYIDRIEVVNMLAPYAVFDIVRNYTADYDKTLIFNKIHHELNQFCSAHTLQEVYIELFDQIDENLKQALQKDLNLMAPGLTIQAVRVTKPKIPEAIRRNFELMEAEKTKLLIAAQKQKVVEKEAETERKKAVIEAEKIAQVAKIRFQQKVMEKETEKRISEIEDAAFLAREKAKADAEYYAAHKYATSNKHKLTPEYLELKKYQAIASNSKIYFGSNIPNMFVDSSCALKYSDIRTGRESSLPSKEALEPSGENVIQNKESTG [ERLIN1]	Sindbis virus TE/5'2J-GFP	94.6
MEKGPVRAPAEKPRGARCSNGFPERDPPRPGPSRPAEKPPRPEAKSAQPADGWKGERPRSEEDNELNLPNLAAAYSSILSSLGENPQRQGLLKTPWRAASAMQFFTKGYQETISDVLNDAIFDEDHDEMVIVKDIDMFSMCEHHLVPFVGKVHIGYLPNKQVLGLSKLARIVEIYSRRLQVQERLTKQIAVAITEALRPAGVGVVVEATHMCMVMRGVQKMNSKTVTSTMLGVFREDPKTREEFLTLIRS [GCH1]	Sindbis virus TE/5'2J-GFP	96
MPITRMRMRPWLEMQINSNQIPGLIWINKEEMIFQIPWKHAAKHGWDINKDACLFRSWAIHTGRYKAGEKEPDPKTWKANFRCAMNSLPDIEEVKDQSRNKGSSAVRVYRMLPPLTKNQRKERKSKSSRDAKSKAKRKSCGDSSPDTFSDGLSSSTLPDDHSSYTVPGYMQDLEVEQALTPALSPCAVSSTLPDWHIPVEVVPDSTSDLYNFQVSPMPSTSEATTDEDEEGKLPEDIMKLLEQSEWQPTNVDGKGYLLNEPGVQPTSVYGDFSCKEEPEIDSPGGDIGLSLQRVFTDLKNMDATWLDSLLTPVRLPSIQAIPCAP [IRF1]	Sindbis virus TE/5'2J-GFP	67.2
